Target: Ubiquitin carboxyl-terminal hydrolase 30 (Homo sapiens)
Test protocol: inhibitors of ubiquitin-specific protease 30 deubiquitylating enzyme, concentration dependence, in vitro biochemical, validation of primary hits (AID 1645865)
Condition label: purified USP30, Ub-rhodamine cleavage, fluorescence, 2 h
The source made the active and inactive calls.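 How the source made its calls: active means maximal inhibition of the USP30 enzyme reaching 30% or more across the dose series; inactive means the rest.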
Possible outcomes: class 1 for active, class 0 for inactive

> print(dat)
                                    compound  answer.label
 1  COc1ccc(CCn2cnc3c4ccccc4n(C)c3c2=O)cc1OC       class 0
 2  O=C(Nc1ccc2c(c1)N(C(=O)C1CCCC1)CC2)c1c(F)cccc1F       class 1
 3  Cc1ccccc1NC(=O)CNc1nc(Nc2ccccc2)nc(Nc2ccccc2)n1       class 1
 4  CN1CCN(C(=O)c2cc(-c3ccn(-c4ccccc4)n3)n3ccccc23)CC1       class 0
 5  O=C(Cn1c(=O)nc(-c2ccccc2)c2ccccc21)NCc1ccc2c(c1)OCO2       class 1
 6  Cc1ccc(C(=O)Nc2ccc3c(c2)C(=O)N(C)c2ccccc2O3)cc1C       class 0
 7  Cc1ccc(NC(=O)c2cc(-c3cccnc3)n(-c3ccccc3)n2)nc1       class 1
 8  COc1cc(OC)cc(-n2c(=O)c3sccc3n(CC(=O)Nc3ccc(C)cc3)c2=O)c1       class 1
 9   Cc1ccc(Nc2nc(NCCc3ccccc3)nc3c2cnn3C)cc1       class 1
10  Cc1ccc(NC2=NC(c3ccco3)n3c(nc(C)cc3=O)N2)c(C)c1 (stereo not given)       class 1
